Hello, the source for this data is paper PMC9482650, in case you need it.

target_or_system: T1, RHPN1, Q8TCX5
T1 sequence (Q8TCX5 508-602, limits assumed, looked up): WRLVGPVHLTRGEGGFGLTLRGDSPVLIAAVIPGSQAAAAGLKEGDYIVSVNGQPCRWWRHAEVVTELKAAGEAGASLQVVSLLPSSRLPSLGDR
test_summary: holdup assay
Design: key: below the threshold = too weak to quantify, mostly under pKd 3.1 to 4
test_context: plain residues with an end cap or a label only (N-terminal biotin on a linker: ado-ado)
Kind request: treat 4 as inclusive, so pKd at 4 or higher is yes (1), anything lower is no (0).

Exercise: Determine whether this binder has pKd no lower than 4: ARGPPRESEV [FAM110D, Q8TAY7]
Solution: no (0)

Exercise: Determine whether this binder has pKd no lower than 4: MQHQRTHTRV [ZSCAN30, Q86W11]
Solution: no (0)

Exercise: Determine whether this binder has pKd no lower than 4: DDASLPVSDV [PLEKHA1, Q9HB21]
Solution: yes (1)

Next binder, please.
Exercise: Determine whether this binder has pKd no lower than 4: REEPDHSTEV [CCRL2, O00421]
Solution: no (0)
